# System: rat smooth muscle cells (RSMCs)
# assay-text: cells
# condition: read-out: IC50 (cell viability); RSMCs; 1 min after addition; listed as papaverine hydrochloride
reported-endpoint: IC50 (µM)

>>> number("COc1ccc(Cc2nccc3cc(OC)c(OC)cc23)cc1OC")
97

* * *

Each record here notes measured pIC50.
# System: rat smooth muscle cells (RSMCs)
# assay-text: cells
# condition: Rattus norvegicus, 0.5 h, read-out: IC50 (cell viability), RSMCs; 30 min after addition
pIC50: −log10 of the molar value.
reported-endpoint: pIC50

>>> number("COc1ccc(Cc2nccc3cc(OC)c(OC)cc23)cc1OC [Papaverine, papaverine]")
4.80
>>> number("O=[N+]([O-])OCC(CO[N+](=O)[O-])O[N+](=O)[O-] [Nitroglycerine, nitroglycerin]")
3.89
>>> number("CCN(CC)CC(=O)Nc1c(C)cccc1C [Lidocaine, lidocaine]")
2.00

Just for reference, paper PMC10341634 is where these values come from.
